# MEASUREMENT NOTES: chemical genetic growth profiling, strain panel (AID 1159580);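 also: tested at 20 µM; growth read once vehicle control cultures reached saturation at 30 °C; 1 = growth at the plate median or of vehicle wells; lower values mean less growth of the strain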
# TEST PARAMETERS: S. cerevisiae deletion strains, growth OD, locus YLR370C, strain arc18
In all, about 5,500 compounds went through this assay and about 2,000 (36%) were called active. About 18% were inconclusive and are not listed. Rule as the data show it: active = normalized growth mostly below about 0.91 (no sharp cut-off); inconclusive = no clear call, values can overlap the other calls; inactive = mostly above about 0.92. This is one part of the list.
Please answer using one outcome listed in Yes for active, No for inactive

Consider the worked cases shown below.
1) COC(=O)[C@H]1[C@H]2C[C@H]3c4[nH]c5cc(OC)ccc5c4CCN3C[C@H]2C[C@@H](OC(=O)c2cc(OC)c(OC)c(OC)c2)[C@@H]1OC: No
2) NCCCN: No
3) COC(=O)C(N)CS (stereo not given): No
4) O=C(/C=C(\O)c1ccccc1)c1ccccc1O: Yes

Proceed to the following item.
Lookup: Lab log entry: NC(=O)c1ccccc1O — outcome as called in the assay?
Found: No

###

Listing: normalized growth of selected compounds
# MEASUREMENT NOTES: chemical genetic growth profiling, strain panel (AID 1159580);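 also: tested at 20 µM; growth read once vehicle control cultures reached saturation at 30 °C; 1 = growth at the plate median or of vehicle wells; lower values mean less growth of the strain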
# TEST PARAMETERS: S. cerevisiae deletion strains, growth OD, locus YLR384C, strain iki3, active compounds read low
Screen size: about 5,500 compounds; about 2,000 (36%) were called active. About 18% were inconclusive and are not listed. The list shows a part of the results.
Please reply with the number alone, leaving off any unit.

Record excerpt, results attached:
1. CC1(C)S[C@@H]2[C@H](NC(=O)C(C(=O)O)c3ccccc3)C(=O)N2[C@H]1C(=O)O (stereo not given in full): 0.969
2. CC(C)Nc1nc(Cl)nc(NC(C)C)n1: 1
3. CCC(=O)OCC(=O)C1(OC(=O)CC)C(C)CC2C3CCC4=CC(=O)C=CC4(C)C3(Cl)C(O)CC21C (stereo not given): 0.958
4. C[C@H]1O[C@H](O[C@H]2[C@H](O)[C@@H](O)[C@@H](O[C@H]3[C@H](O)[C@@H](O)C(O)O[C@@H]3CO)O[C@@H]2CO)[C@H](O)[C@@H](O)[C@@H]1N[C@H]1C=C(CO)[C@@H](O)[C@H](O)[C@H]1O (stereo not given in full): 0.977
5. C[C@H]1[C@H](C)CC[C@]2(C(=O)O)CC[C@]3(C)C(=CCC4[C@@]5(C)C[C@@H](O)[C@H](O)[C@@](C)(CO)C5[C@H](O)C[C@]43C)[C@H]12 (stereo not given in full): 0.964
6. NC(=O)c1ccc([N+](=O)[O-])cc1Cl: 0.992

The measured normalized growth associated with CC1(C)S[C@@H]2[C@H](NC(=O)[C@@H](N)c3ccc(O)cc3)C(=O)N2[C@H]1C(=O)O reads 0.989

The measured normalized growth associated with CN(C)CC[C@H](c1ccc(Cl)cc1)c1ccccn1 reads 0.996

The measured normalized growth associated with CCc1ccc2c(O)c3c(cc2c1C(=O)OC)C(=O)c1c(O)ccc(O)c1C3=O reads 1

The measured normalized growth associated with COc1c(O)cc2c(c1O)[C@H]1O[C@H](CO)[C@@H](O)[C@H](O)[C@@H]1OC2=O reads 1.01

The measured normalized growth associated with CSc1nc(NC(C)C)nc(NC(C)C)n1 reads 0.972

###

# MEASUREMENT NOTES: chemical genetic growth profiling, strain panel (AID 1159580);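 also: tested at 20 µM; growth read once vehicle control cultures reached saturation at 30 °C; 1 = growth at the plate median or of vehicle wells; lower values mean less growth of the strain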
# TEST PARAMETERS: S. cerevisiae deletion strains, growth OD, locus YAL013W, strain DEP1, active compounds read low
Screen size: about 5,500 compounds; about 2,000 (36%) were called active. Another 18% or so got no clear call; they are omitted. The list shows a part of the results.
MEASURE NAME: normalized growth
Please reply with the number alone, leaving off any unit.

Record excerpt, results attached:
1. COc1cc(C(=O)N2CCOCC2)cc(OC)c1OC: 1.01
2. O=[N+]([O-])c1cccnc1Oc1ccc(Cl)cc1: 0.94
3. CN1c2ccccc2C(=O)/C(=N/Nc2ccccc2F)S1(=O)=O: 1
4. CCSc1ncccc1C(=O)N[C@@H](CCSC)C(=O)OC: 0.994
5. Cc1c(OCC(F)(F)F)ccnc1CS(=O)c1nc2ccccc2[nH]1 (centres undefined): 0.992

The measured normalized growth associated with CC(C)(C)c1ccc(Oc2ncccc2NC(=O)c2ccccc2C(F)(F)F)cc1 reads 0.986

The measured normalized growth associated with O=[N+]([O-])c1ccc(Oc2c(Cl)cccc2Cl)c(Cl)c1Oc1c(Cl)cccc1Cl reads 0.98

The measured normalized growth associated with NNC(=O)c1cccnc1Oc1ccccc1 reads 1.01

The measured normalized growth associated with CSCCC(N)C(=O)NC(CC(C)C)C(=O)NC(Cc1ccccc1)C(=O)O (centres undefined) reads 1.01

The measured normalized growth associated with O=C(O)CCc1nc(-c2ccccc2)c(-c2ccccc2)o1 reads 0.974

The measured normalized growth associated with Cc1ccc(SC(=O)c2cccnc2Oc2ccccc2)cc1 reads 0.972

The measured normalized growth associated with N#CC(=C(\N)Sc1ccccc1N)/C(C#N)=C(/N)Sc1ccccc1N reads 0.988

The measured normalized growth associated with O=C(Nc1ccc(Cl)cc1)N1CCN(c2ncccc2C(F)(F)F)CC1 reads 0.996

The measured normalized growth associated with CSc1nc(NC(C)C)nc(NC(C)C)n1 reads 1.01

The measured normalized growth associated with O=C(NC1CCCCC1)N1CCN(c2ncccc2C(F)(F)F)CC1 reads 1.01

The measured normalized growth associated with COc1cc(C(=O)O)cc(OC)c1OC reads 1.02

The measured normalized growth associated with COc1ccccc1N1CCN(CCCCN2C(=O)c3ccccc3C2=O)CC1 reads 1

The measured normalized growth associated with Cc1ccc(Sc2ncccc2C(=O)NCC(=O)O)cc1 reads 1.03

The measured normalized growth associated with CC(=O)N1CCN(c2ccc(OC[C@H]3CO[C@](Cn4ccnc4)(c4ccc(Cl)cc4Cl)O3)cc2)CC1 reads 0.0911
